# Lookup of reported NanoBRET Fold Response keyed by entry
Target: ADRB3 (Homo sapiens, UniProt P13945)
Construct: purchased Promega (in-house HiBiT-GPCR construct library, NanoBRET)
Sequence (P13945 whole entry): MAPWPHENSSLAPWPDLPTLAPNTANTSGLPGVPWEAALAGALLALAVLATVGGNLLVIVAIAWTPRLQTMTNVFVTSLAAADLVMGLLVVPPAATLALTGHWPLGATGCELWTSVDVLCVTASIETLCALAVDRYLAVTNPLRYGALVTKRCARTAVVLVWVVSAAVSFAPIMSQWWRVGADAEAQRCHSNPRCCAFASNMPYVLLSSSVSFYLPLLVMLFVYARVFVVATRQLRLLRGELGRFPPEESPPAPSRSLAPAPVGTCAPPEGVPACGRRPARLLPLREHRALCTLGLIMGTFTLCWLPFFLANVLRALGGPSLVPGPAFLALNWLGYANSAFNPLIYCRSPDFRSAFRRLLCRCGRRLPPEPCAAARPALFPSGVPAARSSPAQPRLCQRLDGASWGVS
Test: NanoBRET screen HiBiT-ADRB3 in HEK293
Format: binding
Conditions: ADRB3; tracer 0.1μM
Description: Each tracer candidate was screened across the entire library of HiBiT-GPCR constructs using NanoBRET as the detection modality. As depicted in Figure 4A, the specificity of interactions was evaluated through decrease in BRET due to competitive displacement of a bound tracer by excess parental compound. Each tracer was analyzed for binding to each HiBiT-GPCR fusion in the absence and in the presence of competing parental compound. […]

The cases that follow already have their NanoBRET Fold Response on record.
>  <COMPOUND>
Cc1nc2n(c(=O)c1CCN1CCC(c3noc4cc(F)ccc34)CC1)CCCC2OC(=O)NCCOCCOCCOCCOCCNC(=O)CCc1ccc2n1[B-](F)(F)[N+]1=C(c3ccc[nH]3)C=CC1=C2 (stereo not shown)

>  <NanoBRET Fold Response>
0.98

$$$$
>  <COMPOUND>
Cc1cc2c(s1)Nc1ccccc1N=C2N1CCN(CCCNC(=O)CCOCCOCCOCCOCCNC(=O)CCc2ccc3n2[B-](F)(F)[N+]2=C(c4ccc[nH]4)C=CC2=C3)CC1

>  <NanoBRET Fold Response>
1.05

$$$$
>  <COMPOUND>
CCCn1c(=O)c2[nH]c(-c3ccc(OCC(=O)NCCNC(=O)CCOCCNC(=O)c4ccc(CNC(=O)CCc5ccc6n5[B-](F)(F)[N+]5=C(c7ccc[nH]7)C=CC5=C6)cc4)cc3)nc2n(CCC)c1=O

>  <NanoBRET Fold Response>
1.11

$$$$

Lookup: Tell me its NanoBRET Fold Response on ADRB3 (Homo sapiens, UniProt P13945): CC(C)N(CC[C@H](c1ccccc1)c1cc(CCNC(=O)CCOCCOCCOCCOCCNC(=O)CCc2ccc3n2[B-](F)(F)[N+]2=C(c4ccc[nH]4)C=CC2=C3)ccc1O)C(C)C
Found: 0.97
